protocol_summary: Antiplatelet aggregation activity against adenosine diphosphate-induced human platelet rich plasma assessed as inhibition of platelet aggregation by turbidimetric method
Assay type: functional
run_parameters: Homo sapiens, Platelet, Plasma
metric_name: pIC50
Please report pIC50 as the negative decimal logarithm of the molar concentration, giving only the number.

Sample answers from the record:
CCOC(=O)N1CCN(C(=O)[C@H](CCC(=O)O)NC(=O)c2cc(OCCOC)cc(-c3ccccc3)n2)CC1    5.22
CCNC(=O)N1CCN(C(=O)[C@H](CCC(=O)O)NC(=O)c2cccc(-c3ccccc3)n2)CC1    4.10
CCCCCOC(=O)N1CCN(C(=O)[C@H](CCC(=O)O)NC(=O)c2cc(C(=O)N(C)CC)cc(-c3ccccc3)n2)CC1    6.24

Incoming: I would be grateful if you could share the reported pIC50 for O=C(O)CC[C@H](NC(=O)c1cccc(-c2ccccc2)n1)C(=O)N1CCN(C(=O)OCCCC(F)(F)F)CC1 .
Outgoing: 4.15

====

Here the recorded Ki is given for each entry.
assay_target: P2Y purinoceptor 12 (Homo sapiens)
protocol_summary: Displacement of [33P]ADP from human recombinant P2Y12 receptor expressed in CHO cells
Note: unit nM is implicit; provide only the numeric part.

Sample answers from the record:
CCCCOC(=O)N1CCN(C(=O)[C@H](CCC(=O)O)NC(=O)c2cc(OCC3CCOCC3)cc(-c3ccccc3)n2)CC1    11
CCCCOC(=O)N1CCN(C(=O)[C@H](CCC(=O)O)NC(=O)c2cc(OCC3CCN(C(C)=O)CC3)cc(-c3ccccc3)n2)CC1    3.9

API: the following record is the query input.
Incoming: I would be grateful if you could share the reported Ki for CCCCCOC(=O)N1CCN(C(=O)[C@H](CCC(=O)O)NC(=O)c2cc(C(=O)N3CCC(N(C)C)CC3)cc(-c3ccccc3)n2)CC1 .
Outgoing: 5.4

====

protocol_summary: Antiplatelet aggregation activity against adenosine diphosphate-induced human platelet rich plasma assessed as inhibition of platelet aggregation by turbidimetric method
Type: functional
run_parameters: Homo sapiens, Platelet, Plasma
metric_name: IC50 (nM)
Note: unit nM is implicit; provide only the numeric part.

Incoming: I would be grateful if you could share the reported IC50 for CCCCOC(=O)N1CCN(C(=O)[C@H](CCC(=O)O)NC(=O)c2cc(N3CCC(N)CC3)cc(-c3ccccc3)n2)CC1 .
Outgoing: 910

Incoming: Try the compound CCCCCCOC(=O)N1CCN(C(=O)[C@H](CCC(=O)O)NC(=O)c2cc(OCCN)cc(-c3ccccc3)n2)CC1
Outgoing: 4500

Incoming: Try the compound CCCCCOC(=O)N1CCN(C(=O)[C@H](CCC(=O)O)NC(=O)c2cc(NC(=O)C(F)(F)F)cc(-c3ccccc3)n2)CC1
Outgoing: 8200

Incoming: Try the compound CCCCCOC(=O)N1CCN(C(=O)[C@H](CCC(=O)O)NC(=O)c2cc(C(=O)N(C)C3CCN(C)CC3)cc(-c3ccccc3)n2)CC1
Outgoing: 350

====

assay_target: P2Y purinoceptor 12 (Homo sapiens, UniProt Q9H244)
Sequence (Q9H244 whole entry): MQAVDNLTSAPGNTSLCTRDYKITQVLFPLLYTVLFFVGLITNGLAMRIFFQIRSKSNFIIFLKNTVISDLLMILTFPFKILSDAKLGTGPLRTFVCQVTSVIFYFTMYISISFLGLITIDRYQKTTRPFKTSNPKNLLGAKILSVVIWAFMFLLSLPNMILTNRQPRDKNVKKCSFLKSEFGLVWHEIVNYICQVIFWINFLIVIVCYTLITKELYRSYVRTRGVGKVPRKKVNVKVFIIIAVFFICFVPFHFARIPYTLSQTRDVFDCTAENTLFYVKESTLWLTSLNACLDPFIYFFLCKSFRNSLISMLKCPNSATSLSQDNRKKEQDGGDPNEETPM
protocol_summary: Displacement of [33P]ADP from human recombinant P2Y12 receptor expressed in CHO cells
metric_name: Ki
Note: a bare number is incomplete; add the unit.

CCCCCOC(=O)N1CCN(C(=O)[C@H](CCC(=O)O)NC(=O)c2cc(N3CCC(OC)CC3)cc(-c3ccccc3)n2)CC1    15 nM

Incoming: I would be grateful if you could share the reported Ki for CCCCCCOC(=O)N1CCN(C(=O)[C@H](CCC(=O)O)NC(=O)c2cc(OCC3CCNCC3)cc(-c3ccccc3)n2)CC1 .
Outgoing: 4.5 nM

Incoming: Try the compound CCCCCOC(=O)N1CCN(C(=O)[C@H](CCC(=O)O)NC(=O)c2cc(N3CCCCC3)cc(-c3ccccc3)n2)CC1
Outgoing: 5.5 nM

Incoming: Try the compound O=C(O)CC[C@H](NC(=O)c1cccc(-c2ccccc2)n1)C(=O)N1CCN(C(=O)OCCCC(F)(F)F)CC1
Outgoing: 18 nM

====

Here the recorded pKi is given for each entry.
assay_target: P2Y purinoceptor 12 (Homo sapiens)
protocol_summary: Displacement of [33P]ADP from human recombinant P2Y12 receptor expressed in CHO cells
Please report pKi as the negative decimal logarithm of the molar concentration, giving only the number.

CCCCCOC(=O)N1CCN(C(=O)[C@H](CCC(=O)O)NC(=O)c2cc(OC3CCN(C(=O)C(F)(F)F)CC3)cc(-c3ccccc3)n2)CC1    7.72

Incoming: Form entry - test system: P2Y purinoceptor 12 (Homo sapiens); read-out: pKi; compound: CCOC(=O)N1CCN(C(=O)[C@H](CCC(=O)O)NC(=O)c2cc(-c3ccccc3)nc(-c3ccccc3)n2)CC1
Outgoing: 6.45

Incoming: Try the compound CCCCCCOC(=O)N1CCN(C(=O)[C@H](CCC(=O)O)NC(=O)c2cc(O)cc(-c3ccccc3)n2)CC1
Outgoing: 7.70

Incoming: Try the compound O=C(O)CC[C@H](NC(=O)c1cccc(-c2ccccc2)n1)C(=O)N1CCN(C(=O)c2ccccc2)CC1
Outgoing: 5.73

Incoming: Try the compound CCCCOC(=O)N1CCN(C(=O)[C@H](CCC(=O)O)NC(=O)c2cc(OCC3CCN(CCOC)CC3)cc(-c3ccccc3)n2)CC1
Outgoing: 8.28

Incoming: Try the compound CCCCCOC(=O)N1CCN(C(=O)[C@H](CCC(=O)O)NC(=O)c2cc(OC3CCN(C)CC3)cc(-c3ccccc3)n2)CC1
Outgoing: 8.30

Incoming: Try the compound CCCCCOC(=O)N1CCN(C(=O)[C@H](CCC(=O)O)NC(=O)c2cc(N3CCC(N)CC3)cc(-c3ccccc3)n2)CC1
Outgoing: 7.77

Incoming: Try the compound COCCOC(=O)N1CCN(C(=O)[C@H](CCC(=O)O)NC(=O)c2cccc(-c3ccccc3)n2)CC1
Outgoing: 6.31

Incoming: Try the compound CCCCOC(=O)N1CCN(C(=O)[C@H](CCC(=O)O)NC(=O)c2cc(OCCCCO)cc(-c3ccccc3)n2)CC1
Outgoing: 8.31

====

protocol_summary: Antiplatelet aggregation activity against adenosine diphosphate-induced human platelet rich plasma assessed as inhibition of platelet aggregation by turbidimetric method
Assay type: functional
run_parameters: Homo sapiens, Platelet, Plasma
metric_name: IC50 (nM)
Note: unit nM is implicit; provide only the numeric part.

CCOC(=O)N1CCN(C(=O)[C@H](CCC(=O)O)NC(=O)c2cc(OCCCOC)cc(-c3ccccc3)n2)CC1    8200
CCCCOC(=O)N1CCN(C(=O)[C@H](CCC(=O)O)NC(=O)c2cc(OC3CCN(C(C)=O)CC3)cc(-c3ccccc3)n2)CC1    1200

API: the following record is the query input.
Incoming: I would be grateful if you could share the reported IC50 for CCCCCOC(=O)N1CCN(C(=O)[C@H](CCC(=O)O)NC(=O)c2cc(N3CCC(O)CC3)cc(-c3ccccc3)n2)CC1 .
Outgoing: 2500

====

assay_target: P2Y purinoceptor 12 (Homo sapiens)
protocol_summary: Displacement of [33P]ADP from human recombinant P2Y12 receptor expressed in CHO cells
Here the recorded pKi is given for each entry.
Please report pKi as the negative decimal logarithm of the molar concentration, giving only the number.

Sample answers from the record:
CCCCOC(=O)N1CCN(C(=O)[C@H](CCC(=O)O)NC(=O)c2cc(OC3CCN(C)CC3)cc(-c3ccccc3)n2)CC1    8.60
CC(C)(C)CCOC(=O)N1CCN(C(=O)[C@H](CCC(=O)O)NC(=O)c2cccc(-c3ccccc3)n2)CC1    7.38
CCCCCOC(=O)N1CCN(C(=O)[C@H](CCC(=O)O)NC(=O)c2cc(NCCOC)cc(-c3ccccc3)n2)CC1    8.01
CCCCOC(=O)N1CCN(C(=O)[C@H](CCC(=O)O)NC(=O)c2cc(OCC3CCCNC3)cc(-c3ccccc3)n2)CC1 (stereo partly drawn)    8.43
CCOC(=O)N1CCN(C(=O)CNC(=O)c2cc(-c3ccccc3)cc(-c3ccccc3)n2)CC1    6.13
CCCCCOC(=O)N1CCN(C(=O)[C@H](CCC(=O)O)NC(=O)c2cc(NC(=O)C(F)(F)F)cc(-c3ccccc3)n2)CC1    8.04
CCCCCOC(=O)N1CCN(C(=O)[C@H](CCC(=O)O)NC(=O)c2cc(CCCNCC(C)C)cc(-c3ccccc3)n2)CC1    7.92

API: the following record is the query input.
Incoming: I would be grateful if you could share the reported pKi for CCCCCOC(=O)N1CCN(C(=O)[C@H](CCC(=O)O)NC(=O)c2cc(NCCO)cc(-c3ccccc3)n2)CC1 .
Outgoing: 8.24

====

assay_target: P2Y purinoceptor 12 (Homo sapiens, UniProt Q9H244)
protocol_summary: Displacement of [33P]ADP from human recombinant P2Y12 receptor expressed in CHO cells
Here the recorded pKi is given for each entry.
Please report pKi as the negative decimal logarithm of the molar concentration, giving only the number.

Sample answers from the record:
CCCCCOC(=O)N1CCN(C(=O)[C@H](CCC(=O)O)NC(=O)c2cc(OC3CCN(C(C)C)CC3)cc(-c3ccccc3)n2)CC1    8.15
CCOC(=O)N1CCN(C(=O)[C@H](CCC(=O)O)NC(=O)c2cc(N3CCC(N)CC3)cc(-c3ccccc3)n2)CC1    8.00

Incoming: I would be grateful if you could share the reported pKi for O=C(O)CC[C@H](NC(=O)c1cccc(-c2ccccc2)n1)C(=O)N1CCN(C(=O)OCC(F)(F)F)CC1 .
Outgoing: 7.03

Incoming: Try the compound CCCCOC(=O)N1CCN(C(=O)[C@H](CCC(=O)O)NC(=O)c2cc(N3CCC(N)CC3)cc(-c3ccccc3)n2)CC1
Outgoing: 8.46

Incoming: Try the compound CCCCOC(=O)N1CCN(C(=O)[C@H](CCC(=O)O)NC(=O)c2cc(OC(=O)N3CCC(OCC)CC3)cc(-c3ccccc3)n2)CC1
Outgoing: 8.68

Incoming: Try the compound CCCCOC(=O)N1CCN(C(=O)[C@H](CCC(=O)O)NC(=O)c2cc(OCCCOC)cc(-c3ccccc3)n2)CC1
Outgoing: 8.23
